system: Aspergillus fumigatus; assay: In vitro antimicrobial activity against Aspergillus fumigatus; format: cell-based; conditions: Table 12; lowest concentration that allows no detectable growth
Positions of bridges follow the written chain, without caps; N, C: chain ends. Non-standard residues stand in square brackets, D forms with d. Residues, ends and D or L forms follow the SMILES beside them. ξ: configuration not given here. *: point of attachment. Pentadecanoyl(3ξ-OH,15-Gua) = N=C(N)NCCCCCCCCCCCCC(O)CC(=O)*; d(aThr) = C[C@@H](O)[C@@H](N)C(=O)O; Thr(3ξ) = CC(O)[C@H](N)C(=O)O
Recorded endpoint: A. fumigatus MIC (minimum inhibitory concentration)

CC(C)[C@@H]1NC(=O)[C@@H](C(C)C)NC(=O)[C@@H](NC(=O)CC(O)CCCCCCCCCCCCN=C(N)N)C(C)OC(=O)[C@@H](C)NC(=O)[C@@H](CCC(N)=O)NC(=O)[C@@H]([C@H](C)O)NC1=O (stereo partly shown) [Fusaricidin B (SQ-1-43B)] ({Pentadecanoyl(3ξ-OH,15-Gua)}-[Thr(3ξ)][dV]V[dT][dQ][dA]; ester 1-C)    >20/>20 μg/mL
CC(C)[C@@H]1NC(=O)[C@@H](C(C)C)NC(=O)[C@@H](NC(=O)CC(O)CCCCCCCCCCCCN=C(N)N)[C@@H](C)OC(=O)[C@@H](C)NC(=O)[C@@H](CC(N)=O)NC(=O)[C@@H]([C@@H](C)O)NC1=O (stereo partly shown) [Fusaricidin A (SQ-1-43 A)] ({Pentadecanoyl(3ξ-OH,15-Gua)}-T[dV]V[d(aThr)][dN][dA]; ester 1-C)    >20/>20 μg/mL
CC(C)[C@@H]1NC(=O)[C@@H](C(C)C)NC(=O)[C@@H](NC(=O)CC(O)CCCCCCCCCCCCN=C(N)N)[C@@H](C)OC(=O)[C@@H](C)NC(=O)[C@@H](CC(N)=O)NC(=O)[C@@H]([C@@H](C)O)NC1=O (stereo partly shown) [Fusaricidin A (RRR-8-32Q)] ({Pentadecanoyl(3ξ-OH,15-Gua)}-T[dV]V[d(aThr)][dN][dA]; ester 1-C)    > 20 µg/mL

Value wanted: A. fumigatus MIC (minimum inhibitory concentration) (Aspergillus fumigatus) of entry `C[C@@H]1[C@H](O)[C@@H](C)/C=C/C=C/C=C/C=C/C=C/C=C/C=C/[C@H](O[C@@H]2O[C@H](C)[C@@H](O)[C@H](N)[C@@H]2O)C[C@@H]2O[C@](O)(C[C@@H](O)C[C@@H](O)[C@H](O)CC[C@@H](O)C[C@@H](O)CC(=O)O[C@H]1C)C[C@H](O)[C@H]2C(=O)O` 3.1 µg/mL

Sourced from patent US12274732B2
